Quick reference for IC50 among some compounds
# target: hOCT1 (Homo sapiens, UniProt O15245)
# Construct: expressed in transfected cells
# Sequence (O15245 whole entry): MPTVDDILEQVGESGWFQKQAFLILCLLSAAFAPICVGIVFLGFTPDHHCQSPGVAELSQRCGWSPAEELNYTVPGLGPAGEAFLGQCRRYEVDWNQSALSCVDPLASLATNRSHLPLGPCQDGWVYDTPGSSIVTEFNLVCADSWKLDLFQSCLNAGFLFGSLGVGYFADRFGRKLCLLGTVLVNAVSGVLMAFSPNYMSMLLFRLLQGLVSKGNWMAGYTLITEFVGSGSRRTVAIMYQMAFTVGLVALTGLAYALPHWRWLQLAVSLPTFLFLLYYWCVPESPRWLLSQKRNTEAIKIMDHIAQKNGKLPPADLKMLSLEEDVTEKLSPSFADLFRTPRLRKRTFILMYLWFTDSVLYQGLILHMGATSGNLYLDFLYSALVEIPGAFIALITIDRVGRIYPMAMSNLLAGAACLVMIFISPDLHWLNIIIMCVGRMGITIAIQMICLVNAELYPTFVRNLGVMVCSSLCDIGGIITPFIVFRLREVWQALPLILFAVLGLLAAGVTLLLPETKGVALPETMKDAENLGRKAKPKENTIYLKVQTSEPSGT
# methodSummary: [3H]MPP+ uptake inhibition assay, HEK293 cells stably expressing hOCT1
# Assay type: cell-based
observable: IC50

In [3]: df
Out[3]:
                                   compound                                target  observable  endpointvalue
0  COC(=O)C(c1ccccc1)C1CCCCN1 (stereo not drawn) [Methylphenidate, methylphenidate]  hOCT1 (Homo sapiens, UniProt O15245)        IC50        0.36 µM
1  COc1cccc(C2(O)CCCCC2CN(C)C)c1 (stereo not drawn)  hOCT1 (Homo sapiens, UniProt O15245)        IC50         5.6 µM
2  CNC1(c2ccccc2Cl)CCCCC1=O (stereo not drawn)  hOCT1 (Homo sapiens, UniProt O15245)        IC50        23.5 µM

Values were extracted from paper PMC8657792.
